Record set: pIC50 | human IKK-β (Homo sapiens) | literature, multiple sources.
pIC50: −log10 of the molar value.

Consider the worked cases shown below.
INSERT INTO results (compound, assay_result) VALUES
  ('N#Cc1c(NCCNC(=O)c2ccccc2)cc(-c2c(O)cccc2OCC2CC2)nc1N', '> 6.30'),
  ('N#Cc1ccc(COc2cccc(O)c2-c2cc(C3CCCNC3)c(C#N)c(N)n2)cc1 (stereo not shown)', '> 6.30'),
  ('N#Cc1c(-c2ccc(N3CCC(N)C3)c(NC(=O)CCN)c2)cc(-c2ccccc2O)nc1N (stereo not shown)', '> 6.30'),
  ('CS(=O)(=O)N1CCCC(c2cc(-c3ccccc3O)nc(N)c2C#N)C1 (stereo not shown)', '5.00 to 5.70'),
  ('CCC(F)(F)c1cc(N2CCC(S(C)(=O)=O)CC2)nc2sc(C(N)=O)c(N)c12', 7.59),
  ('N#Cc1c(-c2cccc(NC(=O)NCCN3CCCCC3)c2)cc(-c2ccccc2O)nc1N', '5.70 to 6.30'),
  ('CC(C)C[C@H](NC/C=C/c1ccc(-c2cc(C(N)=O)c(NC(N)=O)s2)cc1C(F)(F)F)C(=O)O', '> 6.00'),
  ('CC(C)Oc1cccc(O)c1-c1cc(C2CCCNC2)c(C#N)c(N)n1 (stereo not shown)', '> 6.30'),
  ('N#Cc1c(-c2cccc(NC(=O)CCN3CCN(CCO)CC3)c2)cc(-c2ccccc2O)nc1N', '5.70 to 6.30'),
  ('CN(C)CC(=O)Nc1cccc(-c2cc(-c3ccccc3O)nc(N)c2C#N)c1', '5.70 to 6.30');

Task: // query pIC50 value for entry CN(C)c1ccc(NC(=O)CCN2CCCCC2)cc1-c1cc(-c2ccccc2O)nc(N)c1C#N
Result: 5.00 to 5.70

Task: Ok, now N#Cc1c(-c2cccc(NC(=O)CCN3CCC(C(=O)O)CC3)c2)cc(-c2ccccc2O)nc1N
Result: 5.00 to 5.70

Task: What do we get for CCOC(=O)C1Cc2c(C3CCNCC3)cc(-c3c(O)cccc3OCC3CC3)nc2NC1=O (stereo not shown) ?
Result: > 6.30
